# key: entry, value: Kd
Molecular target: T1, human PVRIG-his (AcroBiosystems, Cat NO. PVG-H52H4) (human, UniProt Q6DKI7 41-171, limits assumed)
T1 construct: also called human PVRIG protein
T1 sequence (looked up): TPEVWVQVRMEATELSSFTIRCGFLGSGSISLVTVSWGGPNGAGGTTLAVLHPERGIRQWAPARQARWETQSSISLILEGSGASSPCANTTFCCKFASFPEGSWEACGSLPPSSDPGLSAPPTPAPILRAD
Test: SPR (BIAcore), antibody captured on Protein A chip, human PVRIG-His analyte
// note: answer is a bare numeric in nM

Example entries begin here.
binder	Kd [nM]
SRF813-hIgG1 (antibody, V domains shown, positive control; human IgG1 format) VH: QVQLVQSGAEVKKPGSSVKVSCKASGGTFSSAAISWVRQAPGQGLEWMGNIIPIVGIANYAQKFQGRVTITADESTSTAYMELSSLRSEDTAVYYCARDTGRGYTRHFWFDPWGQGTLVTVSS VL: DIQMTQSPSSLSASVGDRVTITCRASQSISSYLNWYQQKPGKAPKLLIYAASSLQSGVPSRFSGSGSGTDFTLTISSLQPEDFATYYCQQSDILYTFGGGTKVEIK	0.278
COM701-hIgG1 (antibody, V domains shown, positive control; human IgG1 format) VH: QVQLVQSGAEVKKPGASVKVSCKASGYTFTDYNINWVRQAPGQGLEWMGYIYPYIGGSGYAQKFQGRVTMTRDTSTSTVYMELSSLRSEDTAVYYCAREDKTARNAMDYWGQGTLVTVSS VL: DIQMTQSPSSLSASVGDRVTITCRVSENIYSNLAWYQQKPGKAPKLLIYEATNLAEGVPSRFSGSGSGTDFTLTISSLQPEDFATYYCQHFWGTPYTFGQGTKLEIK	0.319
PVRIG-A11 (Fc fusion, heavy chain antibody VHH-hinge-CH2-CH3, human IgG1 constant part; not shown: human IgG1 hinge-CH2-CH3) QLQLVESGGGLVQPGGSLRLSCAASGFTDDYYAIGWFRQAPGKEREGVSCISGSGGSTNYEDSVKGRFAISRDNAKNMVYLQMNDLKPEDTAVYYCAADPFWSAPCTGHNDRYFDVWGQGTLVTVSS	0.106
PVRIG-A117 (Fc fusion, heavy chain antibody VHH-hinge-CH2-CH3, human IgG1 constant part; not shown: human IgG1 hinge-CH2-CH3) EVQVVESGGGLVQAGGSLRLSCTASEHIYDLYIMGWYRQAPGKDRELVATITYTGSIYIADSVKDRFTISRGNAKNTVSLQMSGLKPEDTAVYYCNADPSGLGRKLYWGQGTQVTVSS	0.367
PVRIG-A75 (Fc fusion, heavy chain antibody VHH-hinge-CH2-CH3, human IgG1 constant part; not shown: human IgG1 hinge-CH2-CH3) QLQLVESGGGLVQSGGSLRLSCAASGRTRSMYVMGWFRQAPGKEREFVGRIKWSGDTTYTSYADFVKGRFTLYGNQARNTVYLQMNSLKPEDTAVYSCAASKFPVSGVPEHYDYWGQGTQVTVSS	0.531

Fill in: Kd of PVRIG-A105 (Fc fusion, heavy chain antibody VHH-hinge-CH2-CH3, human IgG1 constant part; not shown: human IgG1 hinge-CH2-CH3) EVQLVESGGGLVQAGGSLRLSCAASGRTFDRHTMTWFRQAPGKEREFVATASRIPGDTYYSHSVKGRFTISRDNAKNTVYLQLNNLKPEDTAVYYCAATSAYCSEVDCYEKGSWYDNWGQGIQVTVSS is ___
0.841

Same question for PVRIG-A50 (Fc fusion, heavy chain antibody VHH-hinge-CH2-CH3, human IgG1 constant part; also called PVRIG-50; not shown: human IgG1 hinge-CH2-CH3) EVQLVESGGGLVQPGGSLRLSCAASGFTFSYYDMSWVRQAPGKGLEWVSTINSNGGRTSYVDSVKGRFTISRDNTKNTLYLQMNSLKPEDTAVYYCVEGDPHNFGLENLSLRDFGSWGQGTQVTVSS please.
0.0254
